Origin of measurements: ChEMBL document CHEMBL1137919

Target sequence: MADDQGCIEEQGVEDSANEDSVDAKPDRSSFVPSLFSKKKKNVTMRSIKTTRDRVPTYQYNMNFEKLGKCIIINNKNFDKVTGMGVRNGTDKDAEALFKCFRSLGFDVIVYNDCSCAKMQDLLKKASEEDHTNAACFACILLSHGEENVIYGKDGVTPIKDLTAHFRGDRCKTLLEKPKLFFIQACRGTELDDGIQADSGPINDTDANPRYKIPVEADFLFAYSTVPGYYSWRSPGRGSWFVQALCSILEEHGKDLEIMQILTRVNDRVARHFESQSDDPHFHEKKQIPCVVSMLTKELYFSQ
Measured Metric: pIC50
pIC50 is a log-scale quantity: -log10 of the concentration expressed in molar.

Sample CC(C)[C@H](NC(=O)OCc1ccc(Cl)cc1Cl)C(=O)NC(CC(=O)O)C(=O)CF (stereo partly specified) ; pIC50 observed: 8.00
